test: Absorption spectrum in chloroform (maximum absorption wavelength, gram absorption coefficient, 550/525 nm coefficient ratio); type: physicochemical; details: chloroform solution
metric-name: λmax (nm)

* CCCCCCCCCCOc1ccc(C2=c3nc(c4c5ccc(Cl)c6c(Cl)ccc(c3=4)c65)C(c3ccc(OCCCCCCCCCC)cc3)=c3c4c(c5[n]3[Ni][n]3c2c2c(c3C(c3ccc(OCCCCCCCCCC)cc3)=c3nc(c6c7ccc(Cl)c8c(Cl)ccc(c3=6)c87)C=5c3ccc(OCCCCCCCCCC)cc3)-c3ccc(Cl)c5c(Cl)ccc-2c35)-c2ccc(Cl)c3c(Cl)ccc-4c23)cc1 | 552
* CCCCCOc1ccc(C2=c3nc(c4c5cccc6cccc(c3=4)c65)C(c3ccc(OCCCCC)cc3)=c3c4c(c5[n]3[Cu][n]3c2c2c(c3C(c3ccc(OCCCCC)cc3)=c3nc(c6c7cccc8cccc(c3=6)c87)C=5c3ccc(OCCCCC)cc3)-c3cccc5cccc-2c35)-c2cccc3cccc-4c23)cc1 | 553
* CCCCOc1ccc(C2=c3nc(c4c5cccc6cccc(c3=4)c65)C(c3ccc(OCCCC)cc3)=c3c4c(c5[n]3[Cu][n]3c2c2c(c3C(c3ccc(OCCCC)cc3)=c3nc(c6c7cccc8cccc(c3=6)c87)C=5c3ccc(OCCCC)cc3)-c3cccc5cccc-2c35)-c2cccc3cccc-4c23)cc1 | 553

Values from patent US20070293666A1
